The origin of these recorded values is paper PMC7643339.

# Assay system: T1, mTLR9-ECD, GluC-cleaved (mouse, UniProt Q9EQU3 26-818)
# T1 sequence: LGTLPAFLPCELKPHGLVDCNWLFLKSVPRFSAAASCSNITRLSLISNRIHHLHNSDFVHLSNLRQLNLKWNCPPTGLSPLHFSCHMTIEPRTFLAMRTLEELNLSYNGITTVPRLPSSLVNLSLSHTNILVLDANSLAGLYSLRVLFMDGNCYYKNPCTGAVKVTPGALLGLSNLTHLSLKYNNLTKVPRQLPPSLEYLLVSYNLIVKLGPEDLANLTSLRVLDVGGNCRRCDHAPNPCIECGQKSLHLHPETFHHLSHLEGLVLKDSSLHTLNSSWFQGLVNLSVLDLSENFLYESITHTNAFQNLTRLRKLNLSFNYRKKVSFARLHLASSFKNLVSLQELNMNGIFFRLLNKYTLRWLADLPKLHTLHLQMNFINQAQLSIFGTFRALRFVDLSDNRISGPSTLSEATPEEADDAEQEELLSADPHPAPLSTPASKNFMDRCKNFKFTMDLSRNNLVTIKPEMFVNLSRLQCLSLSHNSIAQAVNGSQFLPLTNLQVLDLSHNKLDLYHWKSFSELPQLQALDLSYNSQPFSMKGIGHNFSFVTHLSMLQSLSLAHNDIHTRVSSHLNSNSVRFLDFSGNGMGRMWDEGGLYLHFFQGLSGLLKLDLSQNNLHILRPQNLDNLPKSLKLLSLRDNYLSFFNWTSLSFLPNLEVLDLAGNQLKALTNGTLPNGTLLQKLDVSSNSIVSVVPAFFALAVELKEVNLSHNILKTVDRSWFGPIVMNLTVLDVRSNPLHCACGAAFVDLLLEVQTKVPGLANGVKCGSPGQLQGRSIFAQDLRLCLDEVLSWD
# Protocol notes: fluorescence anisotropy; 1:1 fit; Anisotropy: 2 or 5 nM Alexa 488 oligo, protein to 100 nM; competition in 10 mM MES pH 6.0, 0.15 M NaCl, room temperature (direct titration buffer not separately)
Quantity name: Kd (nM)
Value expressed in nM; do not type the unit.

Q: # return recorded Kd for input CCTGGATGGGAA (ssDNA) [4084 (printed 4048 in Table 1; Alexa 488)]
Result: 29
